Values compiled from patent US20210292423A1.

Target: T1, human CD3ε/δ-Fc fusion protein (soluble recombinant CD3ε/δ complex) (human, UniProt P04234 22-105)
T1 construct: also called huCD3ε/δ; huCD3; not shown: hinge, CH2, CH3 of human IgG with tag
T1 sequence (chain, as listed by the source mutant, chain 1 of 2): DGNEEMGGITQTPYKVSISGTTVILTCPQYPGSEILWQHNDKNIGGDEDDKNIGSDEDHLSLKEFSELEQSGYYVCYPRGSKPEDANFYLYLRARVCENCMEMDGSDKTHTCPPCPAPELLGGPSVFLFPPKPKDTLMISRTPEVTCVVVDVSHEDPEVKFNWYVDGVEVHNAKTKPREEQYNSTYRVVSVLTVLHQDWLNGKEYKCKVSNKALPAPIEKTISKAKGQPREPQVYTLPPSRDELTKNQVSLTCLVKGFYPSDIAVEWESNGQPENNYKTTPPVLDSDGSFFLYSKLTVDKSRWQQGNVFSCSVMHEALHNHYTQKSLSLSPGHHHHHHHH
T1 sequence (P04234 22-105, stated change not applied, chain 2 of 2): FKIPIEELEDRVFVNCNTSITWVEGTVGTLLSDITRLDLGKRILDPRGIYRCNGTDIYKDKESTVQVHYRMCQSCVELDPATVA
Test: SPR Biacore, CD3εδ-Fc captured, Fab analyte

{"binder": "4B4-D7 Fab (Fab, V domains shown, also called BDW-4B4-D7) VH: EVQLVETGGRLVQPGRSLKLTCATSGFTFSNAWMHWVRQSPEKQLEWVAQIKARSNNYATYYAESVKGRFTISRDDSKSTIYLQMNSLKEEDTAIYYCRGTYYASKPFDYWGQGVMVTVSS VL: DVVMTQTPVSLSVSLGGQVSISCRSSQSLVHDNGNTYLSWSLQRPGQSPQVLIYKVSNRFSGTSDRFTGSGSGTDFTLKISRVEPDDLGVYYCGQGTQYPFTFGSGTKLEIKR", "result_unit": "M⁻¹ s⁻¹", "kon": 110000}
{"binder": "18G9-H11 Fab (Fab, V domains shown) VH: EVQLVETGGSLVQPGKSLKLTCATSGFTFSNAWIQWVRQSPEKQLEWVAQIKAKSNNYATYYAESVKGRFTISRDDSKSSVYLQMNSLKEEDTALYYCTWRHYYSSHTMDAWGQGTLVTVSS VL: DVVMTQTPVSLSVSLGGQVSISCRSSQSLVHNNGNTYLSWYLQKPGQSPQLLIYKVSNRFSGISDRFSGSGSGTDFTLKISRVAPTDLGVYYCGQGSQYPFTFGAGTKLELK", "result_unit": "M⁻¹ s⁻¹", "kon": 250000}
{"binder": "20E5-F10 Fab (Fab, V domains shown, also called 20E5-F10-huFab) VH: EVQLVETGENLVQPGKSLRLTCATSGFSFSNAWMHWIRQSPEKQLEWVAQIKDKSNNYATYYAESVNGRFTISRDDSKSSIYLHMDNLKEEDSAIYYCRYVHYGVRFFYTMDVWGQGTSVTVSS VL: DVVMTQTPVSLSVSLGDQVSISCRPSQSLVHNNGNTYLSWYLQKPGQSPHPLIYKVSNRFSGISDRFSGSGSGTDFTLKISRVEPDDLGVYYCGQGTQYPFTFGSGTKLEIK", "result_unit": "M⁻¹ s⁻¹", "kon": 99000}
